tested on: U251 glioblastoma; test: NCI tumour cell line growth inhibition, 384-well format
metric: TGI (µM)
Numbers only, in µM.

Nc1ncnc2c1c(-c1cccc(OCc3ccccc3)c1)cn2C1CC(CN2CCCC2)C1 (centres undefined) | 3.38
O=C(CCCCCCC(=O)N/N=C/c1ccc(N(c2ccccc2)c2ccccc2)cc1)NO | 3.07

Pending molecule:
Quick one: TGI of COc1cc(C(=O)NC2CCN(C)CC2)ccc1Nc1ncc2c(n1)N(C1CCCC1)CC(F)(F)C(=O)N2C ? 1.44
